solubility at 1 h listing for selected compounds.
- Measurement Protocol: Saline solubility at 1.00 mg/mL and 0.50 mg/mL (with pH by indicator paper)
- Type: physicochemical
- Test Parameters: saline or isotonic, thermodynamic from solid, 1.00 mg/mL as hydroxamate 1, shaken 1 hour, centrifuged, soluble = no precipitate formed, read-out: Soluble at 1.00 mg/mL of MGCD290 (Y/N)

Please review the following examples before continuing.
COCCOCCOCCNC(=O)CN(CC(=O)NCCOCCOCCOC)C(=O)CCC(=O)ONC(=O)Cc1ccc(CCCCc2ccccc2)cc1 [Compound 95] :: < 1000 µg/mL
COCCOCCOCC(=O)NCCCC[C@H](NC(=O)COCCOCCOC)C(=O)NCCCC(=O)ONC(=O)Cc1ccc(CCCCc2ccccc2)cc1 [Compound 99] :: > 1000 µg/mL
CCOC(=O)CNC(=O)ONC(=O)Cc1ccc(CCCCc2ccccc2)cc1 [Compound 75] :: < 1000 µg/mL
COCCOCCOCC(=O)NCCN(CC(=O)NCCCC(=O)ONC(=O)Cc1ccc(CCCCc2ccccc2)cc1)C(=O)COCCOCCOC [Compound 134] :: > 1000 µg/mL

get_value(item= CC(C)OC(=O)ONC(=O)Cc1ccc(CCCCc2ccccc2)cc1 [Compound 76] , readout=solubility at 1 h) returns < 1000 µg/mL

* * *

// reported solubility at 1 h for each item listed
- Measurement Protocol: Saline solubility at 10.00 mg/mL, 5.00 mg/mL and 2.50 mg/mL (with pH by pH meter)
- Type: physicochemical
- Test Parameters: saline or isotonic, thermodynamic from solid, concentration expressed as equivalent of Cpd 1, highest tested concentration soluble, read-out: Highest prodrug solubility in saline (equivalent of Cpd 1)
Where a name gives a salt, the structure may show the parent alone.

Previously resolved entries follow.
COCCOCCOCC(=O)NCCCC[C@H](NC(=O)COCCOCCOC)C(=O)N(C)CCCC(=O)ONC(=O)Cc1ccc(CCCCc2ccccc2)cc1 :: 10000 µg/mL
COCCOCCOCC(=O)NCCCC[C@H](NC(=O)COCCOCCOC)C(=O)NCCCC(=O)ONC(=O)Cc1ccc(CCCCc2ccccc2)cc1 :: 2500 µg/mL
NCCCC[C@H](N)C(=O)NCCC(=O)ONC(=O)Cc1ccc(CCCCc2ccccc2)cc1 [Compound 14, di-hydrochloride] :: 10000 µg/mL
COCCOCCOCCOCCOCCOCC(=O)N1CCC(CCC(=O)ONC(=O)Cc2ccc(CCCCc3ccccc3)cc2)CC1 :: 10000 µg/mL
COCCOCCOCC(=O)NCCCC[C@H](NC(=O)COCCOCCOC)C(=O)NCCC(=O)ONC(=O)Cc1ccc(CCCCc2ccccc2)cc1 :: 1000 µg/mL
COCCOCC(=O)NCCCC[C@H](NC(=O)COCCOC)C(=O)NCCC(=O)ONC(=O)Cc1ccc(CCCCc2ccccc2)cc1 :: 10000 µg/mL

Please examine the following record next.
Input NCCNCC(=O)NCCC(=O)ONC(=O)Cc1ccc(CCCCc2ccccc2)cc1 [Compound 135, dihydrochloride] . Output solubility at 1 h: 10000 µg/mL

* * *

- Measurement Protocol: Saline solubility at 1.00 mg/mL and 0.50 mg/mL (with pH by indicator paper)
- Format: physicochemical
- Test Parameters: final concentration of hydroxamate 1 1.00 mg/mL, pH indicator paper
Overview of recorded pH at 1.00 mg/mL of MGCD290 in saline for various molecules

Illustrative cases are given below, each with its answer.
CCNC(=O)ONC(=O)Cc1ccc(CCCCc2ccccc2)cc1 :: 4.5-5
COCCOCC(=O)NCC[C@H](NC(=O)COCCOC)C(=O)NCCC(=O)ONC(=O)Cc1ccc(CCCCc2ccccc2)cc1 :: 4.5-5

For the next question, use this molecule.
The molecule identified as `COCCOCCOCCOCCOCC(=O)NCC1(C(=O)ONC(=O)Cc2ccc(CCCCc3ccccc3)cc2)CC1` registered its pH at 1.00 mg/mL of MGCD290 in saline at 4.5-5
